- target_or_test_system: HLA-A*11:01 (Homo sapiens, UniProt P04439, A114D/D185E/E176A/F33Y/L180Q/S129P/T187R)
- measurement_description: Cell-based competitive MHC-I-binding assay, CJO-A lymphoblastoid cells
No end group written: not given here.
measured_quantity: IC50 (µM)
Report only the number, with the unit µM understood.

# residues, IC50 (µM)
rows = [
    ("VVVGARGVGK", 46.1),
    ("VVGAAGVGK", 11.2),
]

In the following, a different sequence is considered.
IC50 in this record for VVVGAAGVGK : 7.03
